assay: Primary fluorescence-based thiol-reactive (MSTI) qHTS assay for identification of artifact compounds. (AID 1845221); conditions: MSTI thiol-reactivity probe, 1 h; series mostly up to 53.8 µM;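 further: thiol-reactive compounds lower the probe fluorescence signal; nearly all actives have a fitted effect of over 65% in size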
Inconclusive results are not listed. Calls of active or inactive are those of the source. The call rests on the fitted dose curve; in most records, active means well fitted inhibition curve with a large enough effect; inconclusive means small, poorly fitted or top-dose-only effect; inactive means no such curve, though single readings can be large or run the other way.
ASSAY METRIC: Potency

Before answering, review these 4 worked examples.
# COMPOUND, ASSAY METRIC, DATA VALUE
measured = [
    ("CCCC1=CC2=C(CO1)C(=O)C(C)(OC(=O)c1c(C)cc(OC)cc1O)C(O)C2 (centres undefined)", "Potency", "inactive"),
    ("O=C(CCO[C@@H]1O[C@H](CO)[C@@H](O)[C@H](O)[C@H]1O)c1ccc(O)cc1", "Potency", "inactive"),
    ("C[C@@H](Nc1cc(NS(=O)(=O)N2CCC2)nc(SCc2cccc(F)c2F)n1)[C@@H](O)CO", "Potency", "inactive"),
    ("CON(C)C(=O)N1N=C(c2cc(F)ccc2F)S[C@@]1(CCCN)c1ccccc1", "Potency", "inactive"),
]

Report Potency for each item below.
1. O=S(=O)(Nc1ccc(C(O)(C(F)(F)F)C(F)(F)F)cc1)c1cccs1
2. C=C1C2(CCC(=O)OC2(C)C)CC(OC(=O)/C(C)=C/C)C2(C)C13OC14C(=O)OC(C)(C(=O)C12C(=O)OC4C)C3OC(C)=O (centres undefined)

Completion:
1. inactive
2. inactive

Report Potency for each item below.
1. C[C@@H]1CC[C@]2(C)C3(C)CC[C@@]2(OC3=O)[C@@]12C[C@H](c1ccoc1)OC2=O
2. CC(O)C(O)/C=C/C=C/C(=O)O[C@@H]1C=C2COC(=O)[C@]2(O)[C@@]2(C)CCCC(C)(C)C12 (some centres undefined)
3. COc1cc(/C=C/c2cc(O)cc(O[C@@H]3O[C@H](CO)[C@@H](O)[C@H](O)[C@H]3O)c2)ccc1O
4. CCOc1nc2cccc(C(=O)O)c2n1Cc1ccc(-c2ccccc2-c2noc(=O)[nH]2)cc1
5. O=c1ccn([C@@H]2O[C@H](CO)[C@@H](O)[C@H]2O)c(=O)[nH]1
6. C[C@H]1CC[C@@]2(OC1)O[C@H]1CC3C4CC=C5C[C@H](O)C[C@@H](O[C@@H]6O[C@@H](C)[C@H](O)[C@@H](O)[C@H]6O[C@@H]6O[C@@H](C)[C@H](O)[C@@H](O)[C@H]6O)[C@]5(C)C4CC[C@]3(C)[C@H]1[C@@H]2C (some centres undefined)

Completion:
["inactive", "inactive", "inactive", "inactive", "inactive", "inactive"]

---

tested on: DIV30; test: qHTS profiling for inhibitors of Plasmodium falciparum proliferation (AID 504749); further: nearly all actives have a fitted effect of over 60% in size; settings: P. falciparum in erythrocytes, SYBR Green DNA, 72 h; series mostly up to 28.7 µM
Inconclusive results are not listed. Activity calls are given as the source filed them. The call rests on the fitted dose curve; in most records, active means well fitted inhibition curve with a large enough effect; inconclusive means small, poorly fitted or top-dose-only effect; inactive means flat fitted curve, though single readings scatter.
Choose the fitting class; nothing outside active, inactive is accepted.

Please review the following examples before continuing.
# MOLECULE, ANSWER LABEL
rows = [
    ("O=C1C(=O)c2ncccc2-c2cccnc21", "active"),
    ("COC(C(=O)C(O)C(C)O)C1Cc2cc3cc(OC4CC(OC5CC(O)C(O)C(C)O5)C(O)C(C)O4)c(C)c(O)c3c(O)c2C(=O)C1OC1CC(OC2CC(OC3CC(C)(O)C(O)C(C)O3)C(O)C(C)O2)C(O)C(C)O1 (stereo not given)", "active"),
    ("CCOC(=O)C1=C(C)NC(C)=C(C(=O)OCC)C1c1ccccc1C=CC(=O)OC(C)(C)C", "active"),
]

Prompt: # outcome recorded in this test, key = Cc1ccccc1OCC(O)CNCCOc1ccc(C(N)=O)cc1 (stereo not given)
Completion: inactive

Prompt: # outcome recorded in this test, key = `IC(I)I`
Completion: inactive

Prompt: # outcome recorded in this test, key = `CCCCCCCC/C=C\CCCCCCCC(=O)O`
Completion: inactive

Prompt: # outcome recorded in this test, key = CC1=CCC(C(C)(C)O)CC1 (stereo not given)
Completion: inactive

Just for reference, PubChem BioAssay (NCATS) is where these values come from.
